Assay system CB2 receptor (Homo sapiens, UniProt P34972); read-out recorded as Ki.
ASSAY_READOUT: Ki

smiles_representation=N#Cc1ccc(NC[C@H]2C[C@H](c3ccc(Cl)cc3)[C@H](c3ccc(Cl)cc3Cl)C2)cc1 assay_readout=Ki result="> 1.5 µM"
smiles_representation=N#Cc1ccc(OC[C@@H]2C[C@H](c3ccc(Cl)cc3)[C@H](c3ccc(Cl)cc3Cl)C2)cc1 assay_readout=Ki result="> 1.5 µM"
smiles_representation=N#Cc1ccc(NC[C@@H]2C[C@H](c3ccc(Cl)cc3)[C@H](c3ccc(Cl)cc3Cl)C2)cc1 assay_readout=Ki result="> 1.5 µM"
smiles_representation=Fc1ccc(OC[C@@H]2C[C@H](c3ccc(Cl)cc3)[C@H](c3ccc(Cl)cc3Cl)C2)cc1F assay_readout=Ki result="> 1.8 µM"
smiles_representation=N#Cc1ccc(CNC[C@@H]2C[C@H](c3ccc(Cl)cc3)[C@H](c3ccc(Cl)cc3Cl)C2)cc1 assay_readout=Ki result="> 1.8 µM"

###

pKi: −log10 of the molar value.
List of pKi tested on CB1 receptor (Homo sapiens, UniProt P21554).
Sequence (P21554 whole entry): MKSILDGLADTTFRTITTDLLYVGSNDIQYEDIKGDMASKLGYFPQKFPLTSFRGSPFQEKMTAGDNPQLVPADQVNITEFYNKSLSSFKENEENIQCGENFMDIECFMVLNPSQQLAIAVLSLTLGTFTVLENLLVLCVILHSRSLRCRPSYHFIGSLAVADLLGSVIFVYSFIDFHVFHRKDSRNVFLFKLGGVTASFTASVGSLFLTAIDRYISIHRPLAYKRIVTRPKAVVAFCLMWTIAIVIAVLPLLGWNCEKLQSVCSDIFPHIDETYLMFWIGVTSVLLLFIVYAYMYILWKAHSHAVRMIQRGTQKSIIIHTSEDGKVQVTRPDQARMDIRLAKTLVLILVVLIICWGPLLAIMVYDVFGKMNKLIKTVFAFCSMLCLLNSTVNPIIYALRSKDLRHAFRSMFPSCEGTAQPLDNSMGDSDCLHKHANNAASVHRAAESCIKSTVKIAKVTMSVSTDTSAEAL
ASSAY_READOUT: pKi

smiles_representation=N#Cc1ccc(NC[C@H]2C[C@H](c3ccc(Cl)cc3)[C@H](c3ccc(Cl)cc3Cl)C2)cc1 modifier=< measured_number=5.82
smiles_representation=N#Cc1ccc(OC[C@@H]2C[C@H](c3ccc(Cl)cc3)[C@H](c3ccc(Cl)cc3Cl)C2)cc1 modifier== measured_number=8.73
smiles_representation=N#Cc1ccc(CNC[C@@H]2C[C@H](c3ccc(Cl)cc3)[C@H](c3ccc(Cl)cc3Cl)C2)cc1 modifier== measured_number=7.90
smiles_representation=Fc1ccc(OC[C@@H]2C[C@H](c3ccc(Cl)cc3)[C@H](c3ccc(Cl)cc3Cl)C2)cc1F modifier== measured_number=7.90
smiles_representation=N#Cc1ccc(NC[C@@H]2C[C@H](c3ccc(Cl)cc3)[C@H](c3ccc(Cl)cc3Cl)C2)cc1 modifier== measured_number=9.00
